test system: Pseudomonas aeruginosa; assay type: cell-based
Bridge positions count the residues as written; N and C are the ends. Square brackets hold non-standard residues; d marks the D form. Peptide text beside a SMILES is read from it. * marks the point of attachment. ξ: configuration not given here. dCha = N[C@H](CC1CCCCC1)C(=O)O; Thr(3ξ) = CC(O)[C@H](N)C(=O)O; X25 = CCCCO[C@@H](CCN)C(=O)*; Dab = NCC[C@H](N)C(=O)O; Dap = NC[C@H](N)C(=O)O
Consider the following molecules and their measured MIC P. aeruginosa 068 readings.
Give just the numeric value; µg/mL need not be written.

[[record]]
molecule = "CC(C)Cc1ccc(C[C@H]2NC(=O)[C@H](CCN)NC(=O)[C@@H](NC(=O)[C@H](CN)NC(=O)[C@@H](NC(=O)C3CNCC(CC(C)C)C3)C(C)O)CCNC(=O)[C@H]([C@@H](C)O)NC(=O)[C@H](CCN)NC(=O)[C@H](CCN)NC(=O)[C@H](CC(C)C)NC2=O)cc1 (single isomer, unassigned; isomer 2)"
target_system = "Pseudomonas aeruginosa"
quantitative_result = 1

[[record]]
molecule = "CCCCCCCCC1CNCC1C(=O)N[C@H](C(=O)N[C@@H](CCN)C(=O)N[C@H]1CCNC(=O)[C@H]([C@@H](C)O)NC(=O)[C@H](CCN)NC(=O)[C@H](CCN)NC(=O)[C@H](CC(C)C)NC(=O)[C@@H](Cc2ccc(-c3ccccc3)cc2)NC(=O)[C@H](CCN)NC1=O)C(C)O (single isomer, unassigned; isomer 2) [Example 8]"
target_system = "Pseudomonas aeruginosa"
quantitative_result = 2


Turning now to a further record.
Test system Pseudomonas aeruginosa; read-out MIC P. aeruginosa 068; what value for CCCCO[C@@H](CCN)C(=O)N[C@H](C(=O)N[C@@H](CN)C(=O)N[C@H]1CCNC(=O)[C@H]([C@@H](C)O)NC(=O)[C@H](CCN)NC(=O)[C@H](CCN)NC(=O)[C@H](CC(C)C)NC(=O)[C@@H](CC2CCCCC2)NC(=O)[C@H](CCN)NC1=O)C(C)O (stereo partly drawn) [Example 46] (X25-[Thr(3ξ)][Dap][Dab][Dab][dCha]L[Dab][Dab]T; lactam 3-C) ? 16

====

Consider the following compounds and their measured MIC A. baumanii ATCC BAA-747 readings.
test system: Acinetobacter baumannii; format: cell-based
Bridge positions count the residues as written; N and C are the ends. Square brackets hold non-standard residues; d marks the D form. Peptide text beside a SMILES is read from it. * marks the point of attachment. X10 = NC[C@H](OCc1ccc(Cl)cc1)C(=O)*; dCha = N[C@H](CC1CCCCC1)C(=O)O; X28 = NCCC(C(=O)*)c1ccccc1Cl; Dab = NCC[C@H](N)C(=O)O; Dap = NC[C@H](N)C(=O)O
Give just the numeric value; µg/mL need not be written.

[[record]]
compound = "CC(C)C[C@@H]1NC(=O)[C@@H](CC2CCCCC2)NC(=O)[C@H](CCN)NC(=O)[C@@H](NC(=O)[C@H](CN)NC(=O)[C@@H](NC(=O)C(CCN)c2ccccc2Cl)[C@@H](C)O)CCNC(=O)[C@H]([C@@H](C)O)NC(=O)[C@H](CCN)NC(=O)[C@H](CCN)NC1=O (stereo partly drawn) [Example 76] (X28-T[Dap][Dab][Dab][dCha]L[Dab][Dab]T; lactam 3-C)"
target_system = "Acinetobacter baumannii"
quantitative_result = 0.5


Using the record for CC(C)C[C@@H]1NC(=O)[C@@H](CC2CCCCC2)NC(=O)[C@H](CCN)NC(=O)[C@@H](NC(=O)[C@H](CN)NC(=O)[C@@H](NC(=O)[C@H](CN)OCc2ccc(Cl)cc2)[C@@H](C)O)CCNC(=O)[C@H]([C@@H](C)O)NC(=O)[C@H](CCN)NC(=O)[C@H](CCN)NC1=O [Example 81] (X10-T[Dap][Dab][Dab][dCha]L[Dab][Dab]T; lactam 3-C) , report its MIC A. baumanii ATCC BAA-747. 0.125

Using the record for CC(C)C[C@@H]1NC(=O)[C@@H](CC2CCCCC2)NC(=O)[C@H](CCN)NC(=O)[C@@H](NC(=O)[C@H](CN)NC(=O)[C@@H](NC(=O)C(CCN)c2ccccc2)C(C)O)CCNC(=O)[C@H]([C@@H](C)O)NC(=O)[C@H](CCN)NC(=O)[C@H](CCN)NC1=O (single isomer, unassigned; isomer 2) , report its MIC A. baumanii ATCC BAA-747. 0.06

====

tested on: Acinetobacter baumannii; format: cell-based
Consider the following compounds and their measured MIC A. baumanii ATCC BAA-747 readings.
Give just the numeric value; µg/mL need not be written.

[[record]]
compound = "CC(C)C[C@@H]1NC(=O)[C@@H](CC2CCCCC2)NC(=O)[C@H](CCN)NC(=O)[C@@H](NC(=O)[C@H](CN)NC(=O)[C@@H](NC(=O)C(CCN)OCc2cccc(Cl)c2)[C@@H](C)O)CCNC(=O)[C@H]([C@@H](C)O)NC(=O)[C@H](CCN)NC(=O)[C@H](CCN)NC1=O (single isomer, unassigned; isomer 1)"
result_type = "MIC A. baumanii ATCC BAA-747"
quantitative_result = 0.125

[[record]]
compound = "CC(C)CC(CN)C(=O)N[C@H](C(=O)N[C@@H](CN)C(=O)N[C@H]1CCNC(=O)[C@H]([C@@H](C)O)NC(=O)[C@H](CCN)NC(=O)[C@H](CCN)NC(=O)[C@H](CC(C)C)NC(=O)[C@@H](Cc2ccc(-c3ccccc3)cc2)NC(=O)[C@H](CCN)NC1=O)C(C)O (single isomer, unassigned; isomer 1) [Example 15]"
result_type = "MIC A. baumanii ATCC BAA-747"
quantitative_result = 8


Using the record for CC(C)C[C@@H]1NC(=O)[C@@H](CC2CCCCC2)NC(=O)[C@H](CCN)NC(=O)[C@@H](NC(=O)[C@H](CN)NC(=O)[C@@H](NC(=O)C(CCN)Cc2ccccc2)C(C)O)CCNC(=O)[C@H]([C@@H](C)O)NC(=O)[C@H](CCN)NC(=O)[C@H](CCN)NC1=O (single isomer, unassigned; isomer 2) , report its MIC A. baumanii ATCC BAA-747. 0.5

====

test system: Escherichia coli; format: cell-based; conditions: strain 061
result type: MIC E. coli 061 (µg/mL)
Give just the numeric value; µg/mL need not be written.

[[record]]
compound = "CC(C)C[C@@H]1NC(=O)[C@@H](CC2CCCCC2)NC(=O)[C@H](CCN)NC(=O)[C@@H](NC(=O)[C@H](CN)NC(=O)[C@@H](NC(=O)CC(CN)C2CCCCC2)C(C)O)CCNC(=O)[C@H]([C@@H](C)O)NC(=O)[C@H](CCN)NC(=O)[C@H](CCN)NC1=O (single isomer, unassigned; isomer 2) [Example 43]"
result_type = "MIC E. coli 061"
u = "µg/mL"
quantitative_result = 8


Turning now to a further record.
Using the record for CC(C)C[C@@H]1NC(=O)[C@@H](CC2CCCCC2)NC(=O)[C@H](CCN)NC(=O)[C@@H](NC(=O)[C@H](CCN)NC(=O)[C@@H](NC(=O)CC(CN)Cc2ccccc2)[C@@H](C)O)CCNC(=O)[C@H]([C@@H](C)O)NC(=O)[C@H](CCN)NC(=O)[C@H](CCN)NC1=O (single isomer, unassigned; isomer 2) [Example 67] , report its MIC E. coli 061. 16

====

system: Klebsiella pneumoniae; assay type: cell-based
Bridge positions count the residues as written; N and C are the ends. Square brackets hold non-standard residues; d marks the D form. Peptide text beside a SMILES is read from it. * marks the point of attachment. ξ: configuration not given here. dBip = N[C@H](Cc1ccc(-c2ccccc2)cc1)C(=O)O; Octanoyl(6-Me) = CCC(C)CCCCC(=O)*; dCha = N[C@H](CC1CCCCC1)C(=O)O; Thr(3ξ) = CC(O)[C@H](N)C(=O)O; Dab = NCC[C@H](N)C(=O)O; X2 = CC(C)CC(CN)C(=O)*
Consider the following molecules and their measured MIC K. pneumoniae 066 readings.
Give just the numeric value; µg/mL need not be written.

Previously resolved entries follow.
[[record]]
molecule = "CCC(C)CCCCC(=O)N[C@@H](CCN)C(=O)N[C@H](C(=O)N[C@@H](CCN)C(=O)N[C@H]1CCNC(=O)[C@H]([C@@H](C)O)NC(=O)[C@H](CCN)NC(=O)[C@H](CCN)NC(=O)[C@H](CC(C)C)NC(=O)[C@@H](Cc2ccc(-c3ccccc3)cc2)NC(=O)[C@H](CCN)NC1=O)C(C)O (stereo partly shown) [Example C3, reference compound] ({Octanoyl(6-Me)}-[Dab][Thr(3ξ)][Dab][Dab][Dab][dBip]L[Dab][Dab]T; lactam 4-C)"
quantitative_result = 4

[[record]]
molecule = "CC(C)CC(CN)C(=O)N[C@H](C(=O)N[C@@H](CCN)C(=O)N[C@H]1CCNC(=O)[C@H]([C@@H](C)O)NC(=O)[C@H](CCN)NC(=O)[C@H](CCN)NC(=O)[C@H](CC(C)C)NC(=O)[C@@H](CC2CCCCC2)NC(=O)[C@H](CCN)NC1=O)C(C)O (stereo partly shown) [Example 21] (X2-[Thr(3ξ)][Dab][Dab][Dab][dCha]L[Dab][Dab]T; lactam 3-C)"
quantitative_result = 16


Using the record for CCCCCCCCC1CNCC1C(=O)N[C@H](C(=O)N[C@@H](CCN)C(=O)N[C@H]1CCNC(=O)[C@H]([C@@H](C)O)NC(=O)[C@H](CCN)NC(=O)[C@H](CCN)NC(=O)[C@H](CC(C)C)NC(=O)[C@@H](Cc2ccccc2-c2ccccc2)NC(=O)[C@H](CCN)NC1=O)C(C)O (single isomer, unassigned; isomer 1) [Example 9] , report its MIC K. pneumoniae 066. 32

Data provenance: patent US12146004B2
